Where do the numbers come from? From patent US10414774B2.

Recorded IC50 values for a group of compounds are listed next.
target: UniProt:Q9UNU6; assay: Human CYP8B1 Liver Microsome Assay; settings: Human CYP8B1 IC50, human liver microsomes; substrate 7a-hydroxy-4-cholesten-3-one, NADPH; RapidFire MS detection of 7α,12α-dihydroxy-4-cholesten-3-one
Sequence (Q9UNU6 whole entry): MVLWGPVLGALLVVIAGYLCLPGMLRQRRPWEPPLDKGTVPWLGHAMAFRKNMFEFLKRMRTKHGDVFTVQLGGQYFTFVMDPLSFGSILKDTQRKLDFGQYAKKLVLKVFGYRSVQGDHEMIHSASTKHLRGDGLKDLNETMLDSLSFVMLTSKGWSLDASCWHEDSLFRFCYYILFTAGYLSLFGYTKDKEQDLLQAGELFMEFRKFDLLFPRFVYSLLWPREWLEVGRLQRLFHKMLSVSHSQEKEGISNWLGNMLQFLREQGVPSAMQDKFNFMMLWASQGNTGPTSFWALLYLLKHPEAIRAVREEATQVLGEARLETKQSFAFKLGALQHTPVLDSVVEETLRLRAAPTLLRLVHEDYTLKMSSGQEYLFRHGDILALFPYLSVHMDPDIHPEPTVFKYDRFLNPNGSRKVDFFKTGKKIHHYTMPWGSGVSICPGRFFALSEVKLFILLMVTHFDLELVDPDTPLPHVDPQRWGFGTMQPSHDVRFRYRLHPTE

Worked examples, 2 compounds total:
{"columns": ["compound", "IC50"],
 "data": [
  ["C[C@@H]1CN(c2c(C#N)cnc3c(F)c(F)c(F)cc23)CC[C@@H]1C(=O)N1CCn2c(nnc2C(F)(F)F)C1", "1.1 nM"],
  ["N#Cc1cnc2ccc(Cl)cc2c1N1CC[C@H](C(=O)N2CCn3c(nnc3C(F)(F)F)C2)[C@H](C2CC2)C1 [Example 76c]", "0.29 nM"]
]}

Task: Retrieve IC50 on UniProt:Q9UNU6; query Cc1nc2ccc(C3CC3)cc2c(N2CCC(C(=O)N3CCn4c(nnc4C(F)(F)F)C3)CC2)c1C#N
Output: 76 nM

Task: Retrieve IC50 on UniProt:Q9UNU6; query C[C@@H]1CN(c2c(C#N)cnc3c(F)c(OC(F)F)ccc23)CC[C@@H]1C(=O)N1CCn2c(nnc2C(F)(F)F)C1
Output: 0.4 nM
